# measuredTarget: Proteinase-activated receptor 2 (Homo sapiens)
# Sequence (P55085 whole entry): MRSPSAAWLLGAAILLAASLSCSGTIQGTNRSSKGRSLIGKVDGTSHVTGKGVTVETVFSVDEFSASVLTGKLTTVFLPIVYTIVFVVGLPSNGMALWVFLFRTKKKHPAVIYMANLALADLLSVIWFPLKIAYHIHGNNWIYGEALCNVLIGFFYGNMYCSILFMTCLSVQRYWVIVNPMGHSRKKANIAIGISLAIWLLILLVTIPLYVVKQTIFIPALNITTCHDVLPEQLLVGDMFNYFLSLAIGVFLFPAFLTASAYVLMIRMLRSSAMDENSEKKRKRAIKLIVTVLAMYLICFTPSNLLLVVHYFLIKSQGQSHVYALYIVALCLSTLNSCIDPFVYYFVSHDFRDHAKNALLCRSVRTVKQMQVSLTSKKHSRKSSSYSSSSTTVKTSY
# assayRemarks: Antagonist activity at protease-activated receptor 2 (unknown origin)
attributeMeasured: IC50 (nM)
Numbers only here, please. The scale is nM.

Q. Enter reported IC50 observed with Proteinase-activated receptor 2 (Homo sapiens) for "CC[C@H](C)[C@H](NC(=O)[C@H](CC1CCCCC1)NC(=O)c1ccno1)C(=O)N1CCC2(C=Cc3ccccc32)CC1"
A. 2000

###

# measuredTarget: Proteinase-activated receptor 2 (Homo sapiens)
# assayRemarks: Antagonist activity at protease-activated receptor 2 (unknown origin) expressed in CHO-K1 cells assessed as inhibition of trypsin-induced calcium flux at 10 uM by FLIPR assay
# Format: functional, cell-based
Activity calls are given as the source filed them. The rule behind the calls is not given here.
attributeMeasured: inhibition

The examples below pair each entry with its known result.
structure=Clc1ccc(COc2nc(NCc3ccco3)c3ccccc3n2)c(Cl)c1 attributemeasured=inhibition measured=16.5%
structure=Clc1ccc(Oc2nc(NCc3ccco3)c3cc(Cl)ccc3n2)c(Cl)c1 attributemeasured=inhibition measured="< 10%"
structure=Cc1ccc(CNc2nc(Oc3ccc(Cl)c(Cl)c3)nc3ccc(F)cc23)o1 attributemeasured=inhibition measured=inactive
structure=COc1ccc2nc(Oc3ccc(Cl)cc3Cl)nc(NCc3occc3C)c2c1 attributemeasured=inhibition measured=33.1%
structure=COc1ccc2nc(Oc3cccc(Cl)c3)nc(NCc3ccco3)c2c1 attributemeasured=inhibition measured=inactive

Q. Fill blank: measured inhibition of the molecule "COc1ccc2nc(Oc3cc(Cl)cc(Cl)c3)nc(NCc3ccco3)c2c1" is ____.
A. inactive

Q. Fill blank: measured inhibition of the molecule "COc1ccc(Oc2nc(NCc3occc3C)c3ccccc3n2)cc1" is ____.
A. 23.1%

Q. Fill blank: measured inhibition of the molecule "Cc1ccc(CNc2nc(Oc3ccc(Cl)cc3Cl)nc3ccc(Cl)cc23)o1" is ____.
A. inactive

Q. Fill blank: measured inhibition of the molecule "Cc1ccoc1CNc1nc(Oc2ccc(Cl)cc2Cl)nc2ccccc12" is ____.
A. inactive

Q. Fill blank: measured inhibition of the molecule "Cc1ccoc1CNc1nc(Oc2cc(Cl)cc(Cl)c2)nc2ccc(F)cc12" is ____.
A. 47.7%

Q. Fill blank: measured inhibition of the molecule "COc1ccc2nc(Oc3ccc(Cl)c(Cl)c3)nc(NCc3ccco3)c2c1" is ____.
A. inactive

Source listed as ChEMBL document CHEMBL3734742.
